Each record here notes measured aptazyme ON/OFF ratio.
B1: Pistol ribozyme (parent)
chain: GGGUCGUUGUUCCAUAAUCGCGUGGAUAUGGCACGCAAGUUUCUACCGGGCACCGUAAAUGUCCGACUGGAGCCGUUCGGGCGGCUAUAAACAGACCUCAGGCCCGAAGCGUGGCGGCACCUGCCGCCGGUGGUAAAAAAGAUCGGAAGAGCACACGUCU

- Variants of: B1
- assay_procedure: aptazyme ON/OFF ratio, guanine; higher = stronger switching; co-transcriptional cleavage with and without guanine

{"columns": ["mut", "aptazyme ON/OFF ratio"],
 "data": [
  ["U8C G9U U10C U11G C12G", 1.12],
  ["U7G U8A U10A U11A C12U C13U", 1.31],
  ["U7A U8A G9C U10C U11C C12A C13U", 1.02],
  ["U7G U10A U11A", 2.39],
  ["U7C U8A G9C U10A", 1.74],
  ["U7G U8G G9C U10G U11A C12A", 1.17],
  ["U8G G9A U11A C12A C13G", 1.25],
  ["U7G U8G U10A U11G C12A", 1.16],
  ["G9U U10G", 4.12],
  ["U7A U8G U10C U11A C12U C13U", 1.18],
  ["U7G U8G U10C U11G C12A C13U", 1.22],
  ["U7A U8C G9A U10G C12A C13G", 1.2],
  ["U7A U8G G9U U10G U11G C12U C13G", 1.3],
  ["U7C U8C G9C U10A U11C C12G C13U", 1.2],
  ["U7A U8C G9A U10G C12A", 1.1],
  ["U7C U8G G9C U10C U11A C12G C13G", 1.17],
  ["U8A G9C U10C C12A C13A", 1.03],
  ["U7G U8C U10A U11C C12U C13G", 1.12],
  ["U7A U8C G9C U10G C12G C13A", 1.05],
  ["U7A U8G U10A C12G", 1.22],
  ["U7G G9C U10A U11A C12U C13A", 1.29],
  ["U7A U8G G9U C12U", 1.62],
  ["U7A U8A G9A U10C U11A C12U", 1.17],
  ["U8C G9U U11C C12U C13A", 1.04],
  ["U7G G9C U11G C12U C13G", 1.27],
  ["U8A U10A U11A C12G C13U", 1.13],
  ["U7G G9U U10C U11G C12U C13A", 1.22],
  ["U7C U8C G9C U10A U11A C12A C13G", 1.03],
  ["U7C G9C U11G C12A C13A", 1.05]
]}
